Assign IC50 to each entry below.
- system-name: human neutrophil elastase (Homo sapiens)
- Construct: using elastase from human neutrophil or human sputum; from tissue; host or cells: human neutrophil
- assay-remarks: Inhibitory effect on elastase (human neutrophil), spectrophotometric assay with MeOSuc-Ala-Ala-Pro-Val-pNA
- Assay type: biochemical
- condition-description: N: human neutrophil elastase; pH 8.0, 37° C.; read-out: IC50
Please answer in the form of a number followed by its unit of measurement.

Recorded results for 3 compounds are shown here.
COc1ccc(COCCCCn2nnc(-c3cccc(OC(=O)C(C)(C)C)c3)n2)cc1 22 nM
CC(C)(C)C(=O)Oc1ccc(-c2nnn(CC(=O)N3CCCCC3)n2)cc1 510 nM
COC(=O)c1ccccc1Cn1nnc(-c2ccc(OC(=O)C(C)(C)C)cc2)n1 100 nM

[in] Input COc1ccc(CCCn2nnc(-c3ccc(OC(=O)C(C)(C)C)cc3)n2)cc1 , output reported IC50.
[out] 90 nM

====

- assay-remarks: Cytotoxicity test (MTT, three days)
- Format: cell-based
- condition-description: mouse, l1210 cells, final concentration 10 μM, read-out: Survival rate
observation-type: viability at 72 h, 10 µM (%)
Give bare numbers, in %.

Recorded results for 5 molecules are shown here.
molecule	measurement-units	viability at 72 h, 10 µM
Cc1cc(-c2nnn(Cc3ccc(N(C)C)cc3)n2)ccc1OC(=O)C(C)(C)C	%	110
CC(C)c1ccc(-n2nnc(-c3ccc(OC(=O)C(C)(C)C)cc3)n2)cc1	%	70.1
CN(C)c1ccc(Cn2nnc(-c3ccc(OC(=O)C(C)(C)C)c(N(C)C)c3)n2)cc1	%	88.3
CC(=O)O.CC(C)(C)C(=O)Oc1ccc(-c2nnn(CCNC(=O)c3ccc(NC(=N)N)cc3)n2)cc1 [Example 95, Acetate]	%	107
CN(C)c1ccc(Cn2nnc(-c3ccc(OC(=O)C(C)(C)C)cc3)n2)cc1	%	104

Record viability at 72 h, 10 µM for all entries; do not skip any.
1. COc1cc(-c2nnn(Cc3ccc(N(C)C)cc3)n2)ccc1OC(=O)C(C)(C)C
2. CC(C)Cn1nnc(-c2ccc(OC(=O)C(C)(C)C)cc2)n1
3. CC(C)(C)C(=O)Oc1ccc(-c2nnn(Cc3ccccc3C(=O)NCC(=O)O)n2)cc1

[out]
1: 86.1; 2: 95.5; 3: 100

====

- system-name: UniProt:P08246
- Sequence (P08246 30-247 limits assumed): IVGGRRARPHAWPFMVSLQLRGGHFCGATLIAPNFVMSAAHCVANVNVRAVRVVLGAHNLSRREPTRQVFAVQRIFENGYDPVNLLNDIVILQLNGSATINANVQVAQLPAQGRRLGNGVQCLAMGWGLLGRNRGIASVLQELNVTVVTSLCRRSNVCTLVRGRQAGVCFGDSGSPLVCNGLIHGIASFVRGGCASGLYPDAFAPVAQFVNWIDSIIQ
- assay-remarks: Inhibitory effect on elastase (human sputum), spectrophotometric assay with MeOSuc-Ala-Ala-Pro-Val-pNA
- Assay type: biochemical
- condition-description: S: human sputum elastase; pH 8.0, 37° C.; read-out: IC50
Where a name gives a salt, the structure may show the parent alone.
Assign IC50 to each entry below.
Please answer in the form of a number followed by its unit of measurement.

Recorded results for 5 molecules are shown here.
molecule	system-name	IC50
CC(C)(C)C(=O)Oc1ccc(-c2nnn(CCO)n2)cc1	UniProt:P08246	500 nM
CN(C)Cc1ccc(Cn2nnc(-c3ccc(OC(=O)C(C)(C)C)cc3)n2)cc1	UniProt:P08246	140 nM
CC(C)(C)C(=O)Oc1ccc(-c2nnn(C(c3ccccc3)c3ccccc3)n2)cc1	UniProt:P08246	220 nM
COc1cc(-c2nnn(Cc3ccc(C(=O)O)cc3)n2)ccc1OC(=O)C(C)(C)C	UniProt:P08246	420 nM
CC(C)(C)C(=O)Oc1ccc(-c2nnn(Cc3ccc(NC(=O)CN)cc3)n2)cc1 [Example 87, Hydrochloride]	UniProt:P08246	58 nM

Record IC50 for all entries; do not skip any.
1. CC(C)(C)C(=O)Oc1ccc(-c2nnn(Cc3ccc(N)cc3)n2)cc1
2. CC(C)(C)C(=O)Oc1ccc(-c2nnn(Cc3ccc(CC(=O)O)cc3)n2)cc1
3. CN(C)c1ccc(Cn2nnnc2-c2ccc(OC(=O)C(C)(C)C)cc2)cc1

[out]
1. 180 nM
2. 110 nM
3. 340 nM
